Tested on: Streptococcus mutans (S. mutans)
experimental details: minimum inhibitory concentration (MIC) assay against S. mutans
Format: cell-based
condition info: S. mutans; assay performed by Charles River Discovery Research Services UK Limited
Protocol: As used herein “minimum inhibitory concentration” or “MIC” refers to the lowest concentration (in μg/mL) of an antibiotic that inhibits the growth of a given strain of bacteria. To determine the ability of the cannabinoid compounds described herein to reduce, or eliminate, S. mutans, a minimum inhibitory concentration (“MIC”) assay was performed. The assay was performed by Charles River Discovery Research Services UK Limited (Portishead, United Kingdom) in accordance with industry standards.
measured metric: MIC (µg/mL)
All answers are understood in µg/mL, so give the number only.

Per the reported Streptococcus mutans (S. mutans) data, C=C(C)[C@@H]1CCC(C)=C[C@H]1c1c(O)cc(C)cc1O [CBD-C1] has MIC of 100

Per the reported Streptococcus mutans (S. mutans) data, CCCc1cc(O)c(C/C=C(\C)CCC=C(C)C)c(O)c1 [CBGV, cannabigerovarin] has MIC of 25

Per the reported Streptococcus mutans (S. mutans) data, CCCCc1cc(O)c(C/C=C(\C)CCC=C(C)C)c(O)c1C(=O)O [CBGA-C4, cannabigerolic acid butyl] has MIC of 12.5

Per the reported Streptococcus mutans (S. mutans) data, C=C(C)[C@@H]1CCC(C)=C[C@H]1c1c(O)cc(CC)cc1O [CBD-C2, cannabidiol ethyl] has MIC of 25

* * *

Please respond with reported MIC for every item in the list.
System: Streptococcus mutans (S. mutans)
experimental details: minimum inhibitory concentration (MIC) assay against S. mutans
Type: cell-based
condition info: S. mutans; assay performed by Charles River Discovery Research Services UK Limited
All answers are understood in µg/mL, so give the number only.

Per the reported Streptococcus mutans (S. mutans) data, C=C(C)[C@@H]1CCC(C)=C[C@H]1c1c(O)cc(CCCC)cc1O [CBD-C4, cannabidibutol] has MIC of 25

Per the reported Streptococcus mutans (S. mutans) data, CCCCc1cc(O)c(CC=C(C)CCC=C(C)C)c(O)c1 [CBG-C4, cannabigerol butyl] has MIC of 25

Per the reported Streptococcus mutans (S. mutans) data, C=C(C)[C@@H]1CCC(C)=C[C@H]1c1c(O)cc(CCC)c(C(=O)O)c1O [CBDVA, cannabidivarinic acid] has MIC of 25

* * *

System: Streptococcus mutans (S. mutans)
experimental details: minimum inhibitory concentration (MIC) assay against S. mutans
Format: cell-based
condition info: Streptococcus mutans, read-out: minimum inhibitory concentration (MIC) against S. mutans
Please respond with reported MIC for every item in the list.

According to the records, this molecule CCCCCc1cc(O)c(C/C=C(\C)CCC=C(C)C)c(O)c1C(=O)O [CBGA, cannabigerolic acid] displays MIC of < 25 µg/mL

According to the records, this molecule C=C(C)[C@@H]1CCC(C)=C[C@H]1c1c(O)cc(CCC)cc1O [CBDV, cannabidivarin] displays MIC of < 25 µg/mL

According to the records, this molecule CCCCCc1cc(O)c2c(c1)OC(C)(C)c1ccc(C)cc1-2 [CBN, cannabinol] displays MIC of > 25 µg/mL

According to the records, this molecule CCCCCc1cc(O)c2c(c1)OC1(C)CCC3C1C2C3(C)C (stereo not shown) [CBL, cannabicyclol] displays MIC of > 25 µg/mL

According to the records, this molecule CCCCCc1cc(O)c(C/C=C(\C)CCC=C(C)C)c(O)c1 [CBG, cannabigerol] displays MIC of < 25 µg/mL

According to the records, this molecule C=C(C)[C@@H]1CCC(C)=C[C@H]1c1c(O)cc(CCCCC)c(C(=O)O)c1O [CBDA, cannabidiolic acid] displays MIC of < 25 µg/mL

According to the records, this molecule CCCCCc1cc(O)c2c(c1)OC(C)(CCC=C(C)C)C=C2 (stereo not shown) [CBC, cannabichromene] displays MIC of < 25 µg/mL
